molecular target: Human Tissue Kallikrein (Homo sapiens, UniProt P06870)
Sequence (P06870 25-262): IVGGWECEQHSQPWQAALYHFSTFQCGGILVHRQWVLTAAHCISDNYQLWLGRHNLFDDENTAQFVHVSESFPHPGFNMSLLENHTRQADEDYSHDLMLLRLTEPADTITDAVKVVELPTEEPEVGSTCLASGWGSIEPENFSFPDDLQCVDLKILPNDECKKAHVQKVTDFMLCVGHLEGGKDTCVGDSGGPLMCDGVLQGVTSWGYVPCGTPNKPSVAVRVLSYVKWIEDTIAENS
pKi: −log10 of the molar value.
# binarize pKi: threshold 5 inclusive, high side satisfied, low side not satisfied

# example entries with known answers
compound_smiles=CCOc1ccc(C[C@@H](NS(C)(=O)=O)C(=O)N[C@@H](Cc2ccccc2)C(=O)NC2CCN(C(=N)N)CC2)cc1 assigned_class=satisfied
compound_smiles=CCOc1ccc(C[C@@H](NC(=O)CC)C(=O)N[C@@H](Cc2ccccc2)C(=O)NC2CCN(C(=N)N)CC2)cc1 assigned_class="not satisfied"
compound_smiles=CCOc1ccc(C[C@@H](NC(=O)c2ccccc2)C(=O)N[C@@H](Cc2ccccc2)C(=O)NC2CCN(C(=N)N)CC2)cc1.O=C(O)C(F)(F)F assigned_class="not satisfied"
compound_smiles=CCOc1ccc(C[C@@H](NC(C)=O)C(=O)N[C@@H](Cc2ccccc2)C(=O)NC2CCN(C(=N)N)CC2)cc1 assigned_class="not satisfied"
compound_smiles=CCOc1ccc(C[C@@H](NC)C(=O)N[C@@H](Cc2ccccc2)C(=O)NC2CCN(C(=N)N)CC2)cc1 assigned_class="not satisfied"

Now examine the next entry.
Q) Is pKi for N=C(N)N1CCC(NC(=O)[C@H](Cc2ccccc2)NC(=O)[C@@H](CC2CCCCC2)NCC(=O)O)CC1.O=C(O)C(F)(F)F at or above 5?
A) satisfied

----------
Target: Trypsin (Bos taurus, UniProt P00760)
Sequence (P00760 24-246): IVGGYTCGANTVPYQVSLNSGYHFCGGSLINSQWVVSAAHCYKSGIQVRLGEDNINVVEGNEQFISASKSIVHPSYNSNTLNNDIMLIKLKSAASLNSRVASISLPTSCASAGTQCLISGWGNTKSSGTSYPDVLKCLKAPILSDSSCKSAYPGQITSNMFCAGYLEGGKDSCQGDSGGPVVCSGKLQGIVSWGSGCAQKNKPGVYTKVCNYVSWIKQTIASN
MEASURED_PARAMETER: Ki

Q) Fill in: Ki of N=C(N)N1CCC(NC(=O)[C@H](Cc2ccccc2)NC(=O)[C@@H](CC2CCCCC2)NCC(=O)O)CC1.O=C(O)C(F)(F)F is ___
A) 825 nM

----------
molecular target: Human plasma kallikrein (Homo sapiens); test: Determination of the inhibition constant Ki for plasma kallikrein (chromogenic substrate S-2302, Dixon plot); conditions: substrate S-2302, 37° C.
Sequence (P03952 391-638 limits assumed): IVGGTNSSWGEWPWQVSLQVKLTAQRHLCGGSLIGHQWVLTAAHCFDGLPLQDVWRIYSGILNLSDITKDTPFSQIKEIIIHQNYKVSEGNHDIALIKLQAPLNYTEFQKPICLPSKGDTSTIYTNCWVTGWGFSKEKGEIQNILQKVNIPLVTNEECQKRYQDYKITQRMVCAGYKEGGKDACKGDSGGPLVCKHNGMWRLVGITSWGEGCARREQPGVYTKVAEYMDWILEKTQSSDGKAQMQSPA
Sequence (P03952 20-390 partner limits assumed): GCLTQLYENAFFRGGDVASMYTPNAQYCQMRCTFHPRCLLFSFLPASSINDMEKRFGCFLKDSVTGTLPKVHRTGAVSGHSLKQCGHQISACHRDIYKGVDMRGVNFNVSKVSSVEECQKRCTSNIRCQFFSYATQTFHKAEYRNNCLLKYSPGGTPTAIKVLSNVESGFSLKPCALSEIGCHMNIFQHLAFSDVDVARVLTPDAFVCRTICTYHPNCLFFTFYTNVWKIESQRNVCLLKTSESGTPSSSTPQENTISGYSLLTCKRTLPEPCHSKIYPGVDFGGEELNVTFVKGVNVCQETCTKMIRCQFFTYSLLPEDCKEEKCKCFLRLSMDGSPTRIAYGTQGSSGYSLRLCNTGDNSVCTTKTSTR
MEASURED_PARAMETER: Ki

Look over these answered cases.
molecule="CCOc1ccc(C[C@@H](NS(=O)(=O)c2ccccc2)C(=O)N[C@@H](Cc2ccccc2)C(=O)NC2CCN(C(=N)N)CC2)cc1 [Example 42]" measured_parameter=Ki reported_result="4.5 nM"
molecule="CCOc1ccc(C[C@@H](NC)C(=O)N[C@@H](Cc2ccccc2)C(=O)NC2CCN(C(=N)N)CC2)cc1 [Example 39]" measured_parameter=Ki reported_result="15 nM"
molecule="CCOc1ccc(C[C@@H](NC(=O)CC)C(=O)N[C@@H](Cc2ccccc2)C(=O)NC2CCN(C(=N)N)CC2)cc1 [Example 45]" measured_parameter=Ki reported_result="3 nM"

Okay, now this molecule:
Q) Fill in: Ki of COC(=O)CN[C@H](CC1CCC2CCCCC2C1)C(=O)N[C@@H](Cc1ccccc1)C(=O)NC1CCN(C(=N)N)CC1 (some centres unmarked) [Example 15] is ___
A) 19 nM

Data provenance is patent US7649000B2.
